Test: Cytotoxicity against human Huh7.5.1 cells infected with Hepatitis C virus JFH-1 measured 48 hrs post infection by luciferase reporter gene assay
Assay type: cell-based, Huh-7
readout_kind: CC50 at 48 h (µM)
Answer in µM, number only, no unit symbol.

Record CC1=NN(c2ccc(C)cc2)C(=O)/C1=C/c1cn(CC(O)CNCCCN2CCOCC2)c2ccccc12 (racemic) , field CC50 at 48 h: 36.2

Record CC1=NN(c2cccc(F)c2)C(=O)/C1=C/c1cn(CC(O)CNCCCN2CCOCC2)c2ccccc12 (racemic) , field CC50 at 48 h: 21.5

Record CC1=NN(c2cccc(F)c2)C(=O)/C1=C/c1cn(C[C@H](O)CNCCCN2CCOCC2)c2ccccc12 , field CC50 at 48 h: 31.1

Record CC1=NN(c2cccc(C(F)(F)F)c2)C(=O)/C1=C/c1cn(CC2CO2)c2ccccc12 (stereo not drawn) , field CC50 at 48 h: 25.1

Record CC1=NN(c2cccc(F)c2)C(=O)/C1=C/c1cn(CC2CO2)c2ccccc12 (stereo not drawn) , field CC50 at 48 h: 25.6

Record CC1=NN(c2ccc(F)cc2)C(=O)/C1=C/c1cn(C[C@@H](O)CNCCCN2CCOCC2)c2ccccc12 , field CC50 at 48 h: 34.6

Origin of values: ChEMBL document CHEMBL3792333
